B1: ZNF511 (parent)
chain: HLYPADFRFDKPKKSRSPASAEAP

- Variants of: B1
- test.protocol: protein stability index of a GFP-peptide fusion (GPS, HEK-293T) (PSI 1-6); higher = more stable;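 also: lentivirally expressed fusions sorted by FACS into six bins by GFP to DsRed ratio, PSI derived from sequencing read proportions per bin multiplied by bin number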
- run.parameters: c terminus: a fixed tail appended
Each entry gets false if its protein stability index stays under 3, and true if its protein stability index is 3 or above.

mutation	label.class
A23Y	false

(Q) Is protein stability index for "Y3M" at or above 3?
(A) true

(Q) Is protein stability index for "K11W" at or above 3?
(A) false

(Q) Is protein stability index for "R8Q" at or above 3?
(A) true

(Q) Is protein stability index for "R8T" at or above 3?
(A) false

(Q) Is protein stability index for "K11Y" at or above 3?
(A) false
